assayComment: Clearance in Han Wistar rat at 1 to 1.2 mg/kg, iv by LC-MS/MS analysis
Assay type: ADME, organism-based
assaySetup: in vivo
experimentalReadout: clearance (mL/min/kg)

compound	reportedValue
CNC(=O)C[C@H]1COc2cc(F)ccc2N1C(=O)c1ccc2c(c1)NC(=O)CO2	24

* * *

assayComment: Intrinsic clearance in human liver microsomes at 1 uM measured up to 30 mins in presence of NADPH by LC-MS/MS analysis
Format: ADME, Microsome
assaySetup: read-out: CLH
Each record is given TRUE if its reported microsomal CLint at 1 µM is strictly below 30 µL/min/mg. Records at or above 30 µL/min/mg are given FALSE.

compound	classAssignment
COC(=O)[C@@H]1CC2=CC(=O)CC[C@]2(C)[C@@]23O[C@@H]2C[C@@]2(C)[C@@H](CC[C@@]24CCC(=O)O4)[C@H]13 [EPLERENONE]	TRUE
C[C@H]1COc2cccnc2N1C(=O)c1ccc2c(c1)NC(=O)CO2	TRUE
COC(=O)C[C@H]1COc2cc(F)ccc2N1C(=O)c1ccc2c(c1)NC(=O)CO2	FALSE
CC(C)C[C@H]1COc2cc(F)ccc2N1C(=O)c1ccc2c(c1)NC(=O)CC2	FALSE
O=C(O)C[C@H]1COc2cc(Cl)ccc2N1C(=O)c1ccc2c(c1)NC(=O)CO2	TRUE
O=C1COc2ccc(C(=O)N3CCCc4ccccc43)cc2N1	TRUE
C[C@H]1COc2cc(F)ccc2N1C(=O)c1ccc2c(c1)NC(=O)CO2	TRUE
CC1CCc2ccccc2N1C(=O)c1ccc2c(c1)NC(=O)CO2 (racemic)	FALSE
Cc1ccc(C2CCCCN2S(=O)(=O)c2ccc3c(c2)NC(=O)CO3)cc1 (racemic)	FALSE
CC(C)C[C@H]1COc2cc(F)ccc2N1C(=O)c1ccc2c(c1)NC(=O)CO2	FALSE
C[C@@H]1COc2cc(F)ccc2N1C(=O)c1ccc2c(c1)NC(=O)CO2	TRUE
CC1CCc2ccccc2N1S(=O)(=O)c1ccc2c(c1)NC(=O)CO2 (racemic)	FALSE
O=C1COc2ccc(C(=O)N3CCOc4ccccc43)cc2N1	TRUE
O=C1COc2ccc(C(=O)N3c4ccc(F)cc4OC[C@@H]3CCO)cc2N1	TRUE
O=C1COc2ccc(C(=O)N3c4ccc(Cl)cc4C[C@@H]3CCO)cc2N1	FALSE
C[C@H]1CCc2cc(F)ccc2N1C(=O)c1ccc2c(c1)NC(=O)CO2	FALSE
C[C@@H]1CCc2cc(F)ccc2N1C(=O)c1ccc2c(c1)NC(=O)CO2	FALSE
N#CC[C@H]1COc2ccccc2N1C(=O)c1ccc2c(c1)NC(=O)CO2	FALSE
NCC[C@H]1COc2cc(F)ccc2N1C(=O)c1ccc2c(c1)NC(=O)CO2	TRUE
